- test_system: T1, biotin-MBP-tagged AtHAB1 (residues 172-511), Q9CAJ0
- T1 chain: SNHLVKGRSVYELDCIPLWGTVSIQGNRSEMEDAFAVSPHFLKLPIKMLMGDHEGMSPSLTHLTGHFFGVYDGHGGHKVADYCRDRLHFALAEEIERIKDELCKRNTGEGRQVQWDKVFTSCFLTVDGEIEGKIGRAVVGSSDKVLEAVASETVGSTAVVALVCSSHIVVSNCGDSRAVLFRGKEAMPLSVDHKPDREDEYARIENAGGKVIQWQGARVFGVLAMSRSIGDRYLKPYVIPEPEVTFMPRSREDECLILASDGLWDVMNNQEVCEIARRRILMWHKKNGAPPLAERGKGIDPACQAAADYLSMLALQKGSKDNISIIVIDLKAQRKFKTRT
- method: AlphaScreen
- condition_set: chain shown with the change; ABA (100 μM); parent: est. 8400; read off a plot
endpoint_label: response (photon counts)
The reply should be a number, written without any unit.

Field: example entries. Status: answers known.
Given item H6-SUMO-tagged FePYR1 K72R (protein) MEQQPAAAEPEVPAGLGLTAAEYAELQPTVEAYHRYAVGPGQCSSLVAQRIEAPAAAVWAIVRRFDCPQVYRHFIRSCALRPDPDAGDELRPGRLREVSVISGLPASTSTERLDLLDDARRAFGFTITGGEHRLANYRSVTTVSELAPAAPAKICTVVLESYVVDVPEGNSEEDTRLFADTVVRLNLQKLKSLAEANATSAAAQATPPPQAE , the value recorded as its response (photon counts) is 1300

Given item H6-SUMO-tagged FePYR1 E131A (protein) MEQQPAAAEPEVPAGLGLTAAEYAELQPTVEAYHRYAVGPGQCSSLVAQRIEAPAAAVWAIVRRFDCPQVYKHFIRSCALRPDPDAGDELRPGRLREVSVISGLPASTSTERLDLLDDARRAFGFTITGGAHRLANYRSVTTVSELAPAAPAKICTVVLESYVVDVPEGNSEEDTRLFADTVVRLNLQKLKSLAEANATSAAAQATPPPQAE , the value recorded as its response (photon counts) is 7500

Continue with the next binder.
Given item H6-SUMO-tagged FePYR1 E111A (protein) MEQQPAAAEPEVPAGLGLTAAEYAELQPTVEAYHRYAVGPGQCSSLVAQRIEAPAAAVWAIVRRFDCPQVYKHFIRSCALRPDPDAGDELRPGRLREVSVISGLPASTSTARLDLLDDARRAFGFTITGGEHRLANYRSVTTVSELAPAAPAKICTVVLESYVVDVPEGNSEEDTRLFADTVVRLNLQKLKSLAEANATSAAAQATPPPQAE , the value recorded as its response (photon counts) is 800
